measured_on: USP8^CD (purified catalytic domain of USP8) (Homo sapiens)
Construct: the purified catalytic domain of USP8 (USP8^CD, in-house purified); made in house; host or cells: E. coli BL21 Gold
Sequence (P40818 777-1109 limits assumed): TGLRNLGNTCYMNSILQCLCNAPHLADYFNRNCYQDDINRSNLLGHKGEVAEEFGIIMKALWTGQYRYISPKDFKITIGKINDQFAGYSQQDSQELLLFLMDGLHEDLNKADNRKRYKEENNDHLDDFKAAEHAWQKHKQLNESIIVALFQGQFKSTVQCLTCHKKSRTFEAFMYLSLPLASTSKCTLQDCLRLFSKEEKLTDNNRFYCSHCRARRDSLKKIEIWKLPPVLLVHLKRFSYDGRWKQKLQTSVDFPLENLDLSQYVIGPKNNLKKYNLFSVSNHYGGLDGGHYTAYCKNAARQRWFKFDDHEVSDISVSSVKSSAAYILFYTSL
experimental_protocol: Inhibition of purified USP8^CD enzymatic activity (Ub-AMC or Ub-Rho substrate)
Format: biochemical
measurement_setup: Ub-AMC substrate at 1 μM; Table 2b; read-out: IC50 USP8 CD

compound	IC50 / nM
CCCCCS(=O)(=O)Cc1nc2c(nc1CS(=O)(=O)CCCCC)C(=O)c1ccccc1C2=O [VIN6077]	1200
CS(=O)(=O)Cc1nc2c(nc1CS(C)(=O)=O)C(=O)c1ccccc1C2=O [VIN6076]	500
O=C1c2ccccc2C(=O)c2nc(CCl)c(CCl)nc21 [PCR8146]	2100
CCCS(=O)(=O)Cc1nc2c(nc1CS(=O)(=O)CCC)C(=O)c1ccccc1C2=O [VIN6074]	300
O=C1c2ccccc2C(=O)c2nc(CS(=O)(=O)c3cccc(F)c3)c(CS(=O)(=O)c3cccc(F)c3)nc21 [OVM13]	400

// provenance: patent US11306063B2
